Kd overview
Biological target: T1, EsCas13d, nuclease-dead (Eubacterium siraeum, UniProt B0MS50, R295A;H300A;R849A;H854A)
T1 sequence: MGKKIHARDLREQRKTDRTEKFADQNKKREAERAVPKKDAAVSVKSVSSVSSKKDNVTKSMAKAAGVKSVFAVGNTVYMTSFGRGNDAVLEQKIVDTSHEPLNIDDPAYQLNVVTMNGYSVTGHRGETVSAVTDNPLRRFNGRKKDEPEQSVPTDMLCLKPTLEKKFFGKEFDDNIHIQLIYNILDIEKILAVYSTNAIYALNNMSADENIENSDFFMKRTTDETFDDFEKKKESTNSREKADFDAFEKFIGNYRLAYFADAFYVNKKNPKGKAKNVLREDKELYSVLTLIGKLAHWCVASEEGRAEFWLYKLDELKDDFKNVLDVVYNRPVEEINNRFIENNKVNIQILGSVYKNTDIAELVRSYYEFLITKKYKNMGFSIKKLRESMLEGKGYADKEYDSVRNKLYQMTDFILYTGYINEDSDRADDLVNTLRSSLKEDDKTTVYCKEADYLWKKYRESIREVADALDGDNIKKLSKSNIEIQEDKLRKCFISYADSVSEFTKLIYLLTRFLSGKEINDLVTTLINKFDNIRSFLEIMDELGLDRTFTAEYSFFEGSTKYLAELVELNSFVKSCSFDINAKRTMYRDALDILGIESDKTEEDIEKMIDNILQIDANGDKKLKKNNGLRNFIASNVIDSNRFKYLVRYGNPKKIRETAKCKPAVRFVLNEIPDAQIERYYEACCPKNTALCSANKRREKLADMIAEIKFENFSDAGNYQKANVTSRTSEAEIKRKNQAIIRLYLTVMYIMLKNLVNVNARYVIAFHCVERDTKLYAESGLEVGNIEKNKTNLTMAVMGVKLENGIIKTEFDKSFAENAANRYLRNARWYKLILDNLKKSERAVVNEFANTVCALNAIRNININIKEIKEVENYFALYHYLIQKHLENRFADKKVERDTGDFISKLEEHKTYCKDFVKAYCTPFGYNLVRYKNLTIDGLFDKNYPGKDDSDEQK
Assay: crRNA (strand 1, pre-loaded); Mg2+; 40 mM Tris-HCl pH 7.5, 150 mM NaCl, 6 mM MgCl2, 1 mM DTT, 0.1% Tween-20, 0.2 mg/ml BSA; 25 C; 10 min per concentration, then washed
Conditions: tags: His6-TwinStrep-SUMO cleaved; N-terminal SNAP kept (SNAP-Surface 488); label: 3' end held by stalled T7 RNA polymerase
Respond numerically; units are nM and should not be typed.

Problem: Supply measured Kd of target 2 MT 5'PFS AAU 3'PFS UCC (mixed) RNA 1: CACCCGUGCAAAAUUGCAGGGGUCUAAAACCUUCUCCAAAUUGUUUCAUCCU RNA 2: GGGAAUGGAUCCACAUCUACGAAUUCAAUAGGAUGAAACAAUUUGGAGAAGUCCAGAUCGGAAGAGCACACGU in your reply.
Result: 11.8
